Catalogue of sequences with associated furin cleavage Z-score
- System: furin, P09958;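 also: purified furin at 1:10 enzyme:substrate in 50 mM HEPES pH 7.5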
- Sequence (P09958 whole entry): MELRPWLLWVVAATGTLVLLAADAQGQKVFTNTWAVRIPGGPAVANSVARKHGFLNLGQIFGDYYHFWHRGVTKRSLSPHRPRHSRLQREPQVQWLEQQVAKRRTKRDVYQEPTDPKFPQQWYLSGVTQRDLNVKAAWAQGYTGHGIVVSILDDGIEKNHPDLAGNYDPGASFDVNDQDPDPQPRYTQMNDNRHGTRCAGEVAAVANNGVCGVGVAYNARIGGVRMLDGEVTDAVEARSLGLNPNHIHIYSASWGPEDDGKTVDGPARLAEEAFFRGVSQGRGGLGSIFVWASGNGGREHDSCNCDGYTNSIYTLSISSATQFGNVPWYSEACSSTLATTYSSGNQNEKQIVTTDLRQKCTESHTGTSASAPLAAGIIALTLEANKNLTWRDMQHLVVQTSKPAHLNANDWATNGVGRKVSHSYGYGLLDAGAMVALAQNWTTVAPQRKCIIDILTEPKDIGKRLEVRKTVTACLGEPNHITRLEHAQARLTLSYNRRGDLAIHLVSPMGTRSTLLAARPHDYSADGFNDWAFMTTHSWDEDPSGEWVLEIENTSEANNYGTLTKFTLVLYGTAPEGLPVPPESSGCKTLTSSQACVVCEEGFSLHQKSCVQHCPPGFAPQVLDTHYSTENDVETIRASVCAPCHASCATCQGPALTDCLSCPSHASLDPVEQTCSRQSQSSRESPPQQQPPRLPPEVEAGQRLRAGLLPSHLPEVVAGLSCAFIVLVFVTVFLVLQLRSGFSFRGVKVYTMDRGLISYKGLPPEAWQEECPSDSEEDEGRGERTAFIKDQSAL
- Assay Notes: furin cleavage Z-score vs untreated control; higher = more cleavage, active = 3.5 or more, inactive = 1 or less, 8 variable residues between constant flanks
- Run Parameters: 15 min
Some of the results follow. How many sequences the whole screen found active is unknown.

These recorded examples may help you get a feel for the data.
| Seq Text | Result |
| --- | --- |
| CARHIRLVLKAGNASASA [FS-2937] | -0.583 (inactive) |
| CAMIHRFWKSAGNASASA [FS-1376] | -1.21 (inactive) |
| CASFDRKKKSAGNASASA [FS-1485] | -0.366 (inactive) |
| CAKGSRRKKSAGNASASA [FS-39] | 4.72 (active) |
| CAIFSRVKKSAGNASASA [FS-802] | 2.87 |

Would you mind telling me what furin cleavage Z-score value was observed for CAEGVFTGLTAGNASASA [HC940] ?
0.108 (inactive)

# iterate: CAEVITSTWVAGNASASA [HC2184]
-0.151 (inactive)

# iterate: CADRRRRRRDAGNASASA [FS-647]
7.21 (active)

# iterate: CAVVCQSMSYAGNASASA [HC99]
0.993 (inactive)

# iterate: CALLLAAGVGAGNASASA [HC1659]
-0.972 (inactive)

# iterate: CALTRRMRRDAGNASASA [FS-177]
14.8 (active)

# iterate: CALLLALPQRAGNASASA [HC560]
-0.224 (inactive)

# iterate: CALKHRVKKSAGNASASA [FS-1358]
10.2 (active)

# iterate: CAIFSRCARSAGNASASA [FS-1343]
0.619 (inactive)

# iterate: CAFQRRRRRDAGNASASA [FS-906]
12 (active)
